Task for the reader: assign each of the following binders its reported pIC50.
- TGT: T1, human parathyroid hormone receptor 1 (hPTHR1) (human), Q03431
- T1 chain: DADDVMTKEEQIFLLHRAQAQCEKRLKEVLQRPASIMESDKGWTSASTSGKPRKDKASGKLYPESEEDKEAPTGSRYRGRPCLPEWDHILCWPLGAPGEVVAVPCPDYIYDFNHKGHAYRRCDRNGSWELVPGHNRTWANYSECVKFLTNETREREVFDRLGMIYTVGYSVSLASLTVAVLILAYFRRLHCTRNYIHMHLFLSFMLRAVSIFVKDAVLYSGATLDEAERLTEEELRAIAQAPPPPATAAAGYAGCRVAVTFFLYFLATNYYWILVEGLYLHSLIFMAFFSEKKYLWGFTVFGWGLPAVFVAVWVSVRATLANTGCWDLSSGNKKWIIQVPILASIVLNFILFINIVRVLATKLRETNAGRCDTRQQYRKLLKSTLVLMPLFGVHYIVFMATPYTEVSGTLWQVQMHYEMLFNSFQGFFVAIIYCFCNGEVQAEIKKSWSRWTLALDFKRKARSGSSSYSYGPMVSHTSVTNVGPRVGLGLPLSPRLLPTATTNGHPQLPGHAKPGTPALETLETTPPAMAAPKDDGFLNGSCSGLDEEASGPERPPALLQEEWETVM
- PROCEDURE_SUMMARY: radioligand competition on GP-2.3 cells (hPTHR1), tracer 125I-PTHrP(5-36), n=4
Lab note: report pIC50 as minus log10 of the concentration in molar units, number only.

Task item: Quick one: pIC50 of FMHNLWKHLSSMERVEWLRKKLQDVHNY (modifications not checked) [dW12, Y34-bPTH(7-34)-1894] ?
Reply: 7.45

Task item: Any idea what its pIC50 is? The binder is IQLMHQRWKWIQDARRRAWLHKLIAEIHTAEI (modifications not checked) [dW12, W23-LA-PTH(5-36)-1949]
Reply: 7.75
